Provide the recorded Fold change to WT CD80 for the entries that follow.
# tested-target: T1, human CTLA4 (huCTLA4), full-length, stably expressed on CHO cells (human, UniProt P16410 36-223)
# T1 construct: whole, on cells
# T1 sequence (P16410 36-223): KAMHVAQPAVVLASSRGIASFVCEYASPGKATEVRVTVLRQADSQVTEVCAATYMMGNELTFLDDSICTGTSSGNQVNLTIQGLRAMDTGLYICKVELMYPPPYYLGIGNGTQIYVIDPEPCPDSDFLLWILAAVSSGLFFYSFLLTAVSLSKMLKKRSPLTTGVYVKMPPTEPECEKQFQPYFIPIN
# procedure-details: flow cytometry, CHO cells expressing huCTLA4; MFI against WT CD80 of the table
The reply should be a number in fold, with the unit left off.

Qu. Answer with reported Fold change to WT CD80 of variant CD80 IgV-Fc H18Y/E35D/V68M/T79M/L85M (Fc fusion, not shown: small tags and cut ends; a dimerising Fc or GST) VIHVTKEVKEVATLSCGYNVSVEELAQTRIYWQKDKKMVLTMMSGDMNIWPEYKNRTIFDITNNLSIMILALRPSDEGMYECVVMKYEKDAFKREHLAEVTLSVKAD
Ans. 9.3

Qu. Answer with reported Fold change to WT CD80 of variant CD80 IgV-Fc E35D/M47L/V68M/E95V/L97Q (Fc fusion, not shown: small tags and cut ends; a dimerising Fc or GST) VIHVTKEVKEVATLSCGHNVSVEELAQTRIYWQKDKKMVLTMMSGDLNIWPEYKNRTIFDITNNLSIMILALRPSDEGTYECVVLKYEKDAFKRVHQAEVTLSVKAD
Ans. 8.5

Qu. Answer with reported Fold change to WT CD80 of variant CD80 IgV-Fc E35D/M43I/M47L/V68M (Fc fusion, not shown: small tags and cut ends; a dimerising Fc or GST) VIHVTKEVKEVATLSCGHNVSVEELAQTRIYWQKDKKMVLTMISGDLNIWPEYKNRTIFDITNNLSIMILALRPSDEGTYECVVLKYEKDAFKREHLAEVTLSVKAD
Ans. 9.3

Qu. Answer with reported Fold change to WT CD80 of variant CD80 IgV-Fc Q33R/E35D/M38I/M47L/V68M (Fc fusion, not shown: small tags and cut ends; a dimerising Fc or GST) VIHVTKEVKEVATLSCGHNVSVEELAQTRIYWRKDKKIVLTMMSGDLNIWPEYKNRTIFDITNNLSIMILALRPSDEGTYECVVLKYEKDAFKREHLAEVTLSVKAD
Ans. 0.1

Qu. Answer with reported Fold change to WT CD80 of variant CD80 IgV-Fc E35D/D46E/M47L/V68M/T79M/L85M/L97Q (Fc fusion, not shown: small tags and cut ends; a dimerising Fc or GST) VIHVTKEVKEVATLSCGHNVSVEELAQTRIYWQKDKKMVLTMMSGELNIWPEYKNRTIFDITNNLSIMILALRPSDEGMYECVVMKYEKDAFKREHQAEVTLSVKAD
Ans. 0.1

Qu. Answer with reported Fold change to WT CD80 of variant CD80 IgV-Fc Q27L/Q33L/E35D/T41S/M47V/N48K/V68M/L85M (Fc fusion, not shown: small tags and cut ends; a dimerising Fc or GST) VIHVTKEVKEVATLSCGHNVSVEELALTRIYWLKDKKMVLSMMSGDVKIWPEYKNRTIFDITNNLSIMILALRPSDEGTYECVVMKYEKDAFKREHLAEVTLSVKAD
Ans. 0.1

Qu. Answer with reported Fold change to WT CD80 of variant CD80 IgV-Fc E35D/M47V/N48K/V68M/L85M (Fc fusion, not shown: small tags and cut ends; a dimerising Fc or GST) VIHVTKEVKEVATLSCGHNVSVEELAQTRIYWQKDKKMVLTMMSGDVKIWPEYKNRTIFDITNNLSIMILALRPSDEGTYECVVMKYEKDAFKREHLAEVTLSVKAD
Ans. 8.9

Qu. Answer with reported Fold change to WT CD80 of variant CD80 IgV-Fc H18Y/V22D/E35D/M47V/N48K/V68M (Fc fusion, not shown: small tags and cut ends; a dimerising Fc or GST) VIHVTKEVKEVATLSCGYNVSDEELAQTRIYWQKDKKMVLTMMSGDVKIWPEYKNRTIFDITNNLSIMILALRPSDEGTYECVVLKYEKDAFKREHLAEVTLSVKAD
Ans. 9
